test system: Pseudomonas aeruginosa 2396; format: cell-based; details: agar serial dilution, 24 hours at 37°C
Experimental Readout: MIC

Worked examples, 2 compounds total:
[
  {
    "Compound": "Cc1nnc(SCC2=C(C(=O)O)N3C(=O)[C@@H](NC(=O)Cn4cnnn4)[C@H]3SC2)s1 [cephazolin, reference compound]",
    "Experimental Readout": "MIC",
    "Observed Value": "> 100 µg/mL"
  },
  {
    "Compound": "CC(=O)OCC1=C(C(=O)O)N2C(=O)[C@@H](NC(=O)CC#N)[C@H]2SC1 [cephacetril, reference compound]",
    "Experimental Readout": "MIC",
    "Observed Value": "> 100 µg/mL"
  }
]

// below: MIC requested for another compound
Recorded MIC for CC(C)NS(=O)(=O)NC(=O)N[C@@H](C(=O)N[C@@H]1C(=O)N2[C@@H]1SC(C)(C)[C@@H]2C(=O)O)c1ccccc1 , please?
> 100 µg/mL

----------
tested on: Klebsiella pneumoniae A 809
This section presents compounds with their documented MIC values.

Worked examples, 2 compounds total:
[
  {
    "Compound": "CC1(C)S[C@@H]2[C@H](NC(=O)[C@H](NC(=O)NS(=O)(=O)Nc3cccnc3)c3ccccc3)C(=O)N2[C@H]1C(=O)O [XI]",
    "Assay System": "Klebsiella pneumoniae A 809",
    "MIC": "> 100 µg/mL"
  },
  {
    "Compound": "CC1(C)S[C@@H]2[C@H](NC(=O)C(C(=O)O)c3ccccc3)C(=O)N2[C@H]1C(=O)O (stereo partly drawn) [carbenicillin, reference compound]",
    "Assay System": "Klebsiella pneumoniae A 809",
    "MIC": "> 100 µg/mL"
  }
]

// below: MIC requested for another compound
// fetch Klebsiella pneumoniae A 809 MIC for CC1(C)S[C@@H]2[C@H](NC(=O)[C@H](NS(N)(=O)=O)c3ccccc3)C(=O)N2[C@H]1C(=O)O [XVIII]
> 100 µg/mL

----------
This section presents molecules with their documented MIC values.
tested on: Pseudomonas aeruginosa Wyeth A 1058; type: cell-based; conditions: WYETHA1058, agar serial dilution, 24 hours at 37°C

Worked examples, 4 molecules total:
[
  {
    "Molecule": "CC(=O)OCC1=C(C(=O)O)N2C(=O)[C@@H](NC(=O)[C@H](N)c3ccccc3)[C@H]2SC1 [cephaloglycin, reference compound]",
    "MIC": "> 100 µg/mL"
  },
  {
    "Molecule": "CC1(C)S[C@@H]2[C@H](NC(=O)[C@H](NC(=O)NS(=O)(=O)Nc3ccccc3)c3ccccc3)C(=O)N2[C@H]1C(=O)O",
    "MIC": "50 µg/mL"
  },
  {
    "Molecule": "CC1(C)S[C@@H]2[C@H](NC(=O)[C@H](NC(=O)NS(=O)(=O)O)c3ccccc3)C(=O)N2[C@H]1C(=O)O",
    "MIC": "25 µg/mL"
  },
  {
    "Molecule": "CC1(C)S[C@@H]2[C@H](NC(=O)[C@H](NC(=O)NS(N)(=O)=O)c3ccccc3)C(=O)N2[C@H]1C(=O)O",
    "MIC": "50 µg/mL"
  }
]

// fetch Pseudomonas aeruginosa Wyeth A 1058 MIC for CC1(C)S[C@@H]2[C@H](NC(=O)C(C(=O)O)c3ccccc3)C(=O)N2[C@H]1C(=O)O (some centres unmarked) [carbenicillin, reference compound]
25 µg/mL

----------
system: Pseudomonas aeruginosa Wyeth A 1058; type: cell-based; settings: WYETHA1058, agar serial dilution, 24 hours at 37°C
Experimental Readout: MIC

Recorded MIC for CC(=O)OCC1=C(C(=O)O)N2C(=O)[C@@H](NC(=O)CC#N)[C@H]2SC1 [cephacetril, reference compound] , please?
> 100 µg/mL

Recorded MIC for Cc1nnc(SCC2=C(C(=O)O)N3C(=O)[C@@H](NC(=O)Cn4cnnn4)[C@H]3SC2)s1 [cephazolin, reference compound] , please?
> 100 µg/mL

Recorded MIC for CN1CCCC1=NS(=O)(=O)N[C@@H](C(=O)N[C@@H]1C(=O)N2[C@@H]1SC(C)(C)[C@@H]2C(=O)O)c1ccccc1 , please?
> 100 µg/mL

----------
test system: Escherichia coli U 20
Each record is given 1 if its reported MIC is strictly below 10 µg/mL. Records at or above 10 µg/mL are given 0.

The following compounds have reported results that may help.
[
  {
    "Compound": "CC(C)N(C(C)C)S(=O)(=O)NC(=O)N[C@@H](C(=O)N[C@@H]1C(=O)N2[C@@H]1SC(C)(C)[C@@H]2C(=O)O)c1ccccc1 [VIII]",
    "Label Value": 0
  },
  {
    "Compound": "CC(C)NS(=O)(=O)NC(=O)N[C@@H](C(=O)N[C@@H]1C(=O)N2[C@@H]1SC(C)(C)[C@@H]2C(=O)O)c1ccccc1 [IX]",
    "Label Value": 0
  },
  {
    "Compound": "CC1(C)S[C@@H]2[C@H](NC(=O)[C@H](NC(=O)NS(N)(=O)=O)c3ccccc3)C(=O)N2[C@H]1C(=O)O [XVI]",
    "Label Value": 0
  },
  {
    "Compound": "CC1(C)S[C@@H]2[C@H](NC(=O)[C@H](NC(=O)NS(=O)(=O)NCc3ccccc3)c3ccccc3)C(=O)N2[C@H]1C(=O)O [XXXII]",
    "Label Value": 1
  },
  {
    "Compound": "Cc1nnc(SCC2=C(C(=O)O)N3C(=O)[C@@H](NC(=O)Cn4cnnn4)[C@H]3SC2)s1 [cephazolin, reference compound]",
    "Label Value": 1
  },
  {
    "Compound": "CC(=NS(=O)(=O)N[C@@H](C(=O)N[C@@H]1C(=O)N2[C@@H]1SC(C)(C)[C@@H]2C(=O)O)c1ccccc1)N(C)C [XXI]",
    "Label Value": 0
  },
  {
    "Compound": "CN1CCCC1=NS(=O)(=O)N[C@@H](C(=O)N[C@@H]1C(=O)N2[C@@H]1SC(C)(C)[C@@H]2C(=O)O)c1ccccc1 [XXIII]",
    "Label Value": 0
  },
  {
    "Compound": "CC(=O)OCC1=C(C(=O)O)N2C(=O)[C@@H](NC(=O)[C@H](N)c3ccccc3)[C@H]2SC1 [cephaloglycin, reference compound]",
    "Label Value": 1
  },
  {
    "Compound": "CC1(C)S[C@@H]2[C@H](NC(=O)[C@H](NS(N)(=O)=O)c3ccccc3)C(=O)N2[C@H]1C(=O)O [XVIII]",
    "Label Value": 0
  },
  {
    "Compound": "CCOC(=O)CNS(=O)(=O)NC(=O)N[C@@H](C(=O)N[C@@H]1C(=O)N2[C@@H]1SC(C)(C)[C@@H]2C(=O)O)c1ccccc1 [X]",
    "Label Value": 0
  }
]

Hi there! Is MIC for CC1(C)S[C@@H]2[C@H](NC(=O)[C@H](NC(=O)NS(=O)(=O)Nc3ccccc3)c3ccccc3)C(=O)N2[C@H]1C(=O)O [VII] below 10 µg/mL, do you know?
0

Hi there! Is MIC for CCOC(=O)NNS(=O)(=O)NC(=O)N[C@@H](C(=O)N[C@@H]1C(=O)N2[C@@H]1SC(C)(C)[C@@H]2C(=O)O)c1ccccc1 [XV] below 10 µg/mL, do you know?
0

Hi there! Is MIC for CCOC(=O)NS(=O)(=O)N[C@@H](C(=O)N[C@@H]1C(=O)N2[C@@H]1SC(C)(C)[C@@H]2C(=O)O)c1ccccc1 [XIX] below 10 µg/mL, do you know?
0

Hi there! Is MIC for CC(=O)OCC1=C(C(=O)O)N2C(=O)[C@@H](NC(=O)CC#N)[C@H]2SC1 [cephacetril, reference compound] below 10 µg/mL, do you know?
1
